Give measured EC50 for each item. Keep answers brief.
SYSTEM: PPARδ ligand-binding domain (LBD) (Homo sapiens (Human), UniProt Q03181)
Sequence (Q03181 211-439): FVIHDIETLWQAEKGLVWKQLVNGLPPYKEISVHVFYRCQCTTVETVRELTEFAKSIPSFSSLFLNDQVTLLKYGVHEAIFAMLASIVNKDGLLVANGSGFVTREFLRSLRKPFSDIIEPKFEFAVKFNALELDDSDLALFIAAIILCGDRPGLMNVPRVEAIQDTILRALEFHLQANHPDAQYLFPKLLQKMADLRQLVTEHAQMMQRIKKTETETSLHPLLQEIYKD
ASSAY_COMMENT: PPARδ activation, TR-FRET coactivator peptide recruitment (enzyme activity EC50)
APPLIED_CONDITIONS: GST-PPARδ LBD 5 nM, read-out: Enzymatic activity (EC50)
Answers are plain numbers, in nM.

Worked cases, answers included:
compound=Cc1cc(SCc2nnc(-c3ccc(C(F)(F)F)cc3)s2)ccc1OC(C)(C)C(=O)O system="PPARδ ligand-binding domain (LBD) (Homo sapiens (Human), UniProt Q03181)" reported_value=374
compound=Cc1cc(SCc2nnc(-c3ccc(C(F)(F)F)cc3)s2)ccc1OCC(=O)O system="PPARδ ligand-binding domain (LBD) (Homo sapiens (Human), UniProt Q03181)" reported_value=39.9
compound=Cc1cc(SCc2nnc(-c3ccc(F)cc3)s2)ccc1OCC(=O)O system="PPARδ ligand-binding domain (LBD) (Homo sapiens (Human), UniProt Q03181)" reported_value=2440

Would you mind listing EC50 for each of the following compounds?
1. Cc1cc(SCc2nnc(-c3ccc(OC(F)(F)F)cc3)s2)ccc1OC(C)(C)C(=O)O
2. Cc1cc(SCc2nnc(-c3ccc(F)c(F)c3)s2)ccc1OCC(=O)O
3. Cc1cc(SCc2nnc(-c3ccc(F)c(F)c3)s2)ccc1OC(C)C(=O)O (stereo not shown)
4. Cc1cc(SCc2nnc(-c3ccc(OC(F)(F)F)cc3)s2)ccc1OC(C)C(=O)O (stereo not shown)

Marked response:
[595, 663, 6160, 1240]
